target: thrombin-stimulated platelets (Homo sapiens, UniProt P05106+P08514); assay: Fibrinogen-Binding Assay (125I-fibrinogen binding to platelets); details: 125I-fibrinogen 0.176 μmol/liter, thrombin-stimulated platelets; read-out: Inhibition of 125I-Fibrinogen Binding to Platelets IC50
Sequence (P08514 32-1039): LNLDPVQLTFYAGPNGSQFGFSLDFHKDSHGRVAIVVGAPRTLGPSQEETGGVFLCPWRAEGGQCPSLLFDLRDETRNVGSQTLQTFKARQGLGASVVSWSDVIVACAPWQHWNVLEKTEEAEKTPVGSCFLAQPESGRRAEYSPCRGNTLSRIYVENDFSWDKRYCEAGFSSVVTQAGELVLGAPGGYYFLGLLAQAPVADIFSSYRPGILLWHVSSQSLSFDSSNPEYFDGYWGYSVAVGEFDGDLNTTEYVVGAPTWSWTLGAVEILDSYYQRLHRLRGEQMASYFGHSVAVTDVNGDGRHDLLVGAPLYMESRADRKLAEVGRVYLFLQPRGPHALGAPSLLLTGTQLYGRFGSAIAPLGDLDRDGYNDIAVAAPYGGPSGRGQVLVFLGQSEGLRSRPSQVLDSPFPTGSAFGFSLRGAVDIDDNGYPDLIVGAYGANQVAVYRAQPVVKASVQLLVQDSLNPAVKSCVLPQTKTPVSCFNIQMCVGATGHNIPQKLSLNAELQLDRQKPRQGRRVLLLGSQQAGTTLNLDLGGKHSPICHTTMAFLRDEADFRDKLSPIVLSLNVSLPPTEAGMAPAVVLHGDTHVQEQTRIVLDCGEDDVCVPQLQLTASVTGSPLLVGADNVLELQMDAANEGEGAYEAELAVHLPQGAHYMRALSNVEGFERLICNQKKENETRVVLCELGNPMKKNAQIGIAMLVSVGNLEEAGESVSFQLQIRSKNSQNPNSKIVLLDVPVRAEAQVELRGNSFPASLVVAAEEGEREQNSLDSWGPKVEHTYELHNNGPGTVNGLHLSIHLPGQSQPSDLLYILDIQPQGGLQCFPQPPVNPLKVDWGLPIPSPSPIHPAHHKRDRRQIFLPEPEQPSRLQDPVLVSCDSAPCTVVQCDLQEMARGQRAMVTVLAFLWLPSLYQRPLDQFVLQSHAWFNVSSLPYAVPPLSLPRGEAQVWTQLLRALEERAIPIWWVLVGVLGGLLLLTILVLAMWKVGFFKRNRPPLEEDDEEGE
Sequence (P05106 27-788): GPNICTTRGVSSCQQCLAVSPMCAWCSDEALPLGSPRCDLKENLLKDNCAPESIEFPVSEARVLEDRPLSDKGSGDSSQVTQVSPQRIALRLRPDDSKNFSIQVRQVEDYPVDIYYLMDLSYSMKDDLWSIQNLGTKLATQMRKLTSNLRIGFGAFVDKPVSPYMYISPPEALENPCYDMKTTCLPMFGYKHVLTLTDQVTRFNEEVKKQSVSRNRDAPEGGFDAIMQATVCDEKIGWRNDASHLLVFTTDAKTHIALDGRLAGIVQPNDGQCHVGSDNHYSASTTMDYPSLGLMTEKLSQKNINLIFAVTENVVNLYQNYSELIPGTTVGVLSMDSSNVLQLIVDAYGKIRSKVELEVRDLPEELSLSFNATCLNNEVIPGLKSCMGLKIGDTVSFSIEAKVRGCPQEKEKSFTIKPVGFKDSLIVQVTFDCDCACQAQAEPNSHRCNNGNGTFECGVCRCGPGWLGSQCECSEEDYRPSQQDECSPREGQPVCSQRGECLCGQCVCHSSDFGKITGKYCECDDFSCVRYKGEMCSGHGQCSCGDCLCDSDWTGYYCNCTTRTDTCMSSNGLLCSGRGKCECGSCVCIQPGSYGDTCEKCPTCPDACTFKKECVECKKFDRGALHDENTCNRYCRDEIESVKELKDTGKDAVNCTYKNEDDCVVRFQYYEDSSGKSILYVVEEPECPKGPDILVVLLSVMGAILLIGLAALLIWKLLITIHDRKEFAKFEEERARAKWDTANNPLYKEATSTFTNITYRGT
Non-standard residues stand in square brackets, D forms with d. Residues, ends and D or L forms follow the SMILES beside them. Aun = NCCCCCCCCCCC(=O)O; Aoc = NCCCCCCCC(=O)O; Sar = CNCC(=O)O
value type: pIC50
Answers are plain numbers, as −log10 of the molar value.

>  <compound>
CC(C)CNC(=O)[C@H](CCCNC(=N)N)NC(=O)[C@H](CC(=O)O)NC(=O)CCCCCCCCNC(=N)N

>  <experimental system>
thrombin-stimulated platelets (Homo sapiens, UniProt P05106+P08514)

>  <pIC50>
5.52

$$$$

I need pIC50 for every entry listed below, if you could help.
1. CC(C)[C@H](NC(=O)[C@H](CC(=O)O)NC(=O)C=CCCCCCCCNC(=N)N)C(=O)O
2. CC(C)[C@H](NC(=O)[C@H](CC(=O)O)NC(=O)CNC(=O)CCCCNC(=N)N)C(=O)O
3. N=C(N)NCCCCCCCC(=O)N[C@@H](CC(=O)O)C(=O)N[C@@H](Cc1ccccc1)C(=O)O
4. CC(C)CNC(=O)[C@H](CC(=O)O)NC(=O)CNC(=O)[C@@H](N)CCCNC(=N)N
5. CC(C)[C@H](NC(=O)[C@H](CC(=O)O)NC(=O)CCCCCCCCCNC(=N)N)C(=O)O [10-Guanidinodecanoyl-L-aspartyl-L-valine]

Resp:
[4.92, 6.15, 6.70, 4.58, 5.60]

I need pIC50 for every entry listed below, if you could help.
1. CC(C)[C@H](NC(=O)[C@H](CC(=O)O)NC(=O)CN(Cc1ccccc1)C(=O)CCCCCNC(=N)N)C(=O)O
2. CC(C)[C@H](NC(=O)[C@H](CC(=O)O)NC(=O)CN(C)C(=O)CCCCCn1ccnc1-c1ccccc1)C(=O)O
3. N=C(N)NCCCCCCCCC(=O)N[C@@H](CC(=O)O)C(=O)NCC(=O)N[C@@H](CCCNC(=N)N)C(=O)O
4. CC(C)[C@H](NC(=O)[C@H](CC(=O)O)NC(=O)CN(C)C(=O)CCCCCCCN)C(=O)O (H-[Aoc][Sar]DV-OH)
5. N=C(N)NCCCCCCCCC(=O)N[C@@H](CC(=O)O)C(=O)N[C@@H](Cc1ccccc1)C(=O)N[C@@H](CCCNC(=N)N)C(=O)O

Resp:
6.08
6.42
5.15
6.64
5.22

I need pIC50 for every entry listed below, if you could help.
1. N=C(N)NCCCCC(=O)NCC(=O)N[C@@H](CC(=O)O)C(=O)N1CCc2ccccc2C1
2. CC(C)[C@H](NC(=O)[C@H](CC(=O)O)NC(=O)CN(C)C(=O)CCCCn1ccnc1)C(=O)O
3. CC(C)COC(=O)[C@H](CCCNC(=N)N)NC(=O)[C@H](CC(=O)O)NC(=O)CCCCCCCCNC(=N)N
4. CC(C)[C@H](NC(=O)[C@H](CC(=O)O)NC(=O)CNC(=O)CCCCCCNC(=N)N)C(=O)O
5. CN(CC(=O)N[C@@H](CC(=O)O)C(=O)N[C@@H](CCCCN)C(=O)O)C(=O)CCCCCNC(=N)N

Resp:
1. 3.89
2. 6.82
3. 6.20
4. 5.19
5. 6.47

I need pIC50 for every entry listed below, if you could help.
1. CC(C)[C@H](NC(=O)[C@H](CC(=O)O)NC(=O)CCCCCCCCCCN)C(=O)O [11-Aminoundecanoyl-L-aspartyl-L-valine] (H-[Aun]-Asp-Val-OH)
2. CC(C)[C@H](NC(=O)[C@H](CC(=O)O)NC(=O)CCCCCCCCCCNC(=N)N)C(=O)O

Resp:
1: 6.24; 2: 4.77

Source listed as patent US5332726A.
